- Tested on: TK-10 renal
- protocol: NCI tumour cell line growth inhibition, 48 h
Could you please report measured TGI for the items listed next?

Before answering, review these 10 worked examples.
1. COc1c(N2CCN(CN3C(=O)C(=Nc4ccc(S(=O)(=O)Nc5ncccn5)cc4)c4cc(Cl)ccc43)C(C)C2)c(F)cc2c(=O)c(C(=O)O)cn(C3CC3)c12 (stereo unspecified) | 35.2 µM
2. CC1(C)C=C(/C=C2/N(S(=O)(=O)C(F)(F)F)C(/C=C3/N(S(=O)(=O)C(F)(F)F)C(C)(C#N)CC3(C)C)=CC2(C)C)N=C1/C=C1/CC(C)(C)C(=O)N1 (stereo unspecified) | > 100 µM
3. Nc1cccc2c1C(=O)c1cccc(NC(=O)c3ccccc3)c1C2=O | 8.13 µM
4. O=c1c2c3c(sc2nc2n1N=C(c1ccc(Br)cc1)CS2)CCCC3 | > 100 µM
5. CC[C@H](C)[C@H](NC(=O)c1cccn1C)C(=O)N(C)[C@H](C[C@@H](OC(C)=O)c1nc(C(=O)N[C@@H](Cc2ccccc2)C[C@H](C)C(=O)OC)cs1)C(C)C | > 33.3 µM
6. N#Cc1c(-c2ccc([N+](=O)[O-])cc2)c(C#N)c(=O)n(NS(=O)(=O)c2ccccc2)c1O | > 100 µM
7. Cc1cc(-c2ccccc2)nc2oc(=O)n(C)c12 | > 100 µM
8. N#CCCN(CCC#N)c1ccc(C(N=Nc2ccccc2)=Nc2ccc(F)cc2)cc1 | > 100 µM
9. Cc1nc2c(=O)n(-c3ccccc3)c(=O)n(-c3ccccc3)c2o1 | > 100 µM
10. OC(CC(O)(C(F)(F)Cl)C(F)(F)Cl)c1ccccc1 (stereo unspecified) | > 10 µM

Need TGI for each of these molecules.
1. COc1ccc2c(c1)CCc1c-2n[nH]c1-c1[nH]nc2c1CCc1cc(OC)ccc1-2
2. COc1ccc(OC(C)C(=O)O)c2c(=O)ccccc12 (stereo unspecified)
3. CN1C2=Nc3n(c4ccccc4[n+]3C)CN2c2ccccc21
4. NCCCCNCCCN1CCOC1=O
5. c1ccc2c(c1)cc1ccc3cccc4ccc2c1c34
6. N#Cc1cc(S(=O)(=O)Nc2nc3ccccc3o2)c(SCc2ccccc2)cc1Cl

Output:
["> 100 µM", "> 100 µM", "> 100 µM", "> 100 µM", "> 100 µM", "> 100 µM"]

###

- Tested on: ACHN renal
- protocol: NCI tumour cell line growth inhibition, 48 h; in the data active = GI50 below about 0.43 µM; inactive = the rest
Select the matching outcome among class 1 for active, class 0 for inactive

Task: Which result was noted for this molecule in the test: CCC1=C(CC2NCCc3ccccc32)CC2c3cc(OC)c(OC)cc3CCN2C1 (centres undefined)
Output: class 0

Task: Which result was noted for this molecule in the test: "CCN(CC)CCCCNc1c2ccc(Cl)cc2nc2ccc(OC)cc12"
Output: class 1

Task: Which result was noted for this molecule in the test: "COC(=O)[C@H](Cc1cn(C)cn1)NC(=O)[C@H](Cc1ccccc1)NC(=O)Nc1cc(C(F)(F)F)cc(C(F)(F)F)c1"
Output: class 0

###

- Tested on: PC-3 prostate
- protocol: NCI tumour cell line growth inhibition, 48 h
Could you please report measured TGI for the items listed next?

Before answering, review these 2 worked examples.
1) COc1cc(CNc2oc(-c3ccccc3)c(-c3ccccc3)c2C#N)cc(CN2CCN(C)CC2)c1O | 4.09 µM
2) O=c1c2c3c(sc2nc2n1N=C(c1ccc(Br)cc1)CS2)CCCC3 | > 100 µM

Need TGI for each of these molecules.
1. COc1cc2c(c(OC)c1)[C@H](C)N(Cc1ccccc1)C(C)C2 (stereo not given in full)
2. CN1c2ccccc2C2=C(c3ccccc3)CC[C@@H](C(=O)N3C4CC5CC[C@@]4(CS3(=O)=O)C5(C)C)[C@@H]21 (stereo not given in full)
3. CS(=O)(=O)Nc1ccc2ccccc2c1
4. CC1(C)OCC(C2OC(C)(C)OC2[C@H]2O[C@@]3(O)[C@H]4[C@H](C=CC[C@@H]42)[C@@H](OCc2ccccc2)[C@H](OCc2ccccc2)[C@H]3OCc2ccccc2)O1 (stereo not given in full)
5. CCC1([N+](=O)[O-])CN(N=O)C1
6. CC/C=N\N1C(N)=C(C#N)C(C#N)(C#N)C1CC (stereo not given)
7. CCn1ncc2c(=O)n3ncn(-c4ccc(Br)cc4)c3nc21
8. CC1(C)CCC[C@]2(C)c3ccccc3C(=O)CC12 (stereo not given in full)

Output:
> 100 µM
> 100 µM
> 100 µM
> 100 µM
> 100 µM
> 100 µM
> 100 µM
> 100 µM

Need TGI for each of these molecules.
1. O=C(c1ccco1)N(C(=O)N1CCC(c2ccccc2)CC1)c1ccccc1
2. CCOC(=O)C(NC(=O)c1cccc(Cl)c1)(Nc1cccc(C)c1)C(F)(F)F (stereo not given)
3. CSc1nc(=O)c2nc(-c3cccs3)c(-c3cccs3)nc2n1C
4. CCOC(=O)c1c(-c2ccccc2)c(OC)cn1C
5. C=C(C)[C@@H]1CC[C@]2(C(=O)NS(=O)(=O)c3ccccc3)CC[C@]3(C)[C@H](CC[C@@H]4[C@@]5(C)CC[C@H](OC(=O)NS(=O)(=O)c6ccccc6)C(C)(C)[C@@H]5CC[C@]43C)[C@@H]12
6. C=C(C)[C@H]1CC23C(=O)[C@@](C)(C[C@H]2C1(C)C)C(=O)C(C(=O)C(C)C)=C3O

Output:
1: > 100 µM; 2: 43.6 µM; 3: > 100 µM; 4: > 10 µM; 5: 20.6 µM; 6: 33 µM

Need TGI for each of these molecules.
1. CCOC(=O)c1csc(NC(=O)CCN2CCN(C)CC2)n1
2. Oc1ccccc1/C=N/N1C(=S)N(C23CC4CC(CC(C4)C2)C3)C(=Nc2ccccc2)C1=Nc1ccccc1
3. C[C@]12C[C@H](O)[C@H]3[C@@H](CCC4=CC(=O)CC[C@@]43C)[C@@H]1CC[C@@H]2c1csc(-c2ccccc2)n1
4. CSc1ccc(/C=C2\N=C(c3ccccc3)N(c3nc4cc(Cl)c(F)cc4s3)C2=O)cc1

Output:
1. > 100 µM
2. > 100 µM
3. 20.3 µM
4. > 100 µM

###

Could you please report measured TGI for the items listed next?
- System: SF-295 CNS
- protocol: NCI tumour cell line growth inhibition, 48 h

Before answering, review these 4 worked examples.
1. O=c1c2ccc(Cl)cc2oc2c(CNc3ccc(S(=O)(=O)Nc4ncccn4)cc3)cccc12 | > 100 µM
2. CN(C)CCNCCCNc1c2ccccc2nc2cccc([N+](=O)[O-])c12 | 0.0741 µM
3. Oc1ccccc1/C=N/N1C(=S)N(C23CC4CC(CC(C4)C2)C3)C(=Nc2ccccc2)C1=Nc1ccccc1 | > 100 µM
4. COc1ccc(S(=O)(=O)N(C(C)=O)c2ccccc2/C=C/c2cc[n+]([O-])cc2)cc1 | > 10 µM

Need TGI for each of these compounds.
1. O=c1[nH]c(=O)n(C2CC(O)C(CO)O2)cc1C(F)(F)F (stereo not drawn)
2. CC(=O)Oc1ccc2c(-c3ccccc3)c(Oc3ccc(Cl)cc3)c(=O)oc2c1

Output:
1. > 100 µM
2. 32.4 µM

###

- Test system: KM12 colon
- protocol: NCI tumour cell line growth inhibition, 48 h
parameter: TGI

Before answering, review these 5 worked examples.
1) O=C(/C=C/C12c3ccccc3C(c3ccccc31)C1C(=O)NC(=O)C12)c1ccccc1 (stereo not given) | 11 µM
2) CSc1ncc2c(n1)-c1ccccc1OC2NC1CC1 (stereo not given) | > 100 µM
3) C/C(=C\CSCC(N)C(=O)O)CC/C=C(\C)CNc1ccccc1 (stereo not given) | > 100 µM
4) COc1cc2nccc(Oc3ccc(NC(=O)c4cn(C(C)C)c(=O)n(-c5ccc(F)cc5)c4=O)cc3F)c2cc1OC | > 100 µM
5) O=c1[nH]c(=O)n(C2CC(O)C(CO)O2)cc1C(F)(F)F (stereo not given) | > 100 µM

Need TGI for each of these molecules.
1. NCCCCNCCCN1CCOC1=O
2. C=C(C)[C@@H]1CC[C@]2(C(=O)NS(=O)(=O)c3ccccc3)CC[C@]3(C)[C@H](CC[C@@H]4[C@@]5(C)CC[C@H](OC(=O)NS(=O)(=O)c6ccccc6)C(C)(C)[C@@H]5CC[C@]43C)[C@@H]12
3. Oc1ccccc1/C=N/N1C(=S)N(C23CC4CC(CC(C4)C2)C3)C(=Nc2ccccc2)C1=Nc1ccccc1
4. O=c1c2cc3ccccc3n2c(=O)c2cc3ccccc3n12
5. COc1cc2c(cc1OCc1ccccc1)NC(=O)[C@@H]1CCCN1C2=O

Output:
["> 100 µM", "2.96 µM", "> 100 µM", "> 100 µM", "> 100 µM"]

Need TGI for each of these molecules.
1. O=C(c1ccco1)N(C(=O)N1CCC(c2ccccc2)CC1)c1ccccc1
2. O=C(Nc1cccc(C(F)(F)F)c1)Oc1ccc(Cl)c2cccnc12
3. CC(=O)Oc1ccc2c(c1)C(=O)c1nc(C)c(C)nc1C2=O
4. N#CC1=C(N)NC(=O)NC12Nc1ccccc1N2
5. O=c1/c(=N\Nc2ccccc2)c2cccc3ccc4cccc1c4c32
6. Clc1ccc(/C(=C/c2ccccc2)Cn2ccnc2)cc1
7. Nc1cccc2c1C(=O)c1cccc(NC(=O)c3ccccc3)c1C2=O

Output:
["85 µM", "13.4 µM", "> 100 µM", "> 100 µM", "> 100 µM", "> 100 µM", "> 100 µM"]

Need TGI for each of these molecules.
1. CC1SC(c2ccc(Cl)cc2Cl)N(NC(=O)C(O)c2ccccc2)C1=O (stereo not given)
2. O=C(c1ccc([N+](=O)[O-])cc1)N1CCCC1
3. CC1(C)OCC(C2OC(C)(C)OC2[C@H]2O[C@@]3(O)[C@H]4[C@H](C=CC[C@@H]42)[C@@H](OCc2ccccc2)[C@H](OCc2ccccc2)[C@H]3OCc2ccccc2)O1 (stereo not given in full)

Output:
1. > 100 µM
2. > 100 µM
3. > 100 µM
